Target: purified human IDO protein (Homo sapiens, UniProt P14902)
Sequence (P14902 whole entry P110S/E119G): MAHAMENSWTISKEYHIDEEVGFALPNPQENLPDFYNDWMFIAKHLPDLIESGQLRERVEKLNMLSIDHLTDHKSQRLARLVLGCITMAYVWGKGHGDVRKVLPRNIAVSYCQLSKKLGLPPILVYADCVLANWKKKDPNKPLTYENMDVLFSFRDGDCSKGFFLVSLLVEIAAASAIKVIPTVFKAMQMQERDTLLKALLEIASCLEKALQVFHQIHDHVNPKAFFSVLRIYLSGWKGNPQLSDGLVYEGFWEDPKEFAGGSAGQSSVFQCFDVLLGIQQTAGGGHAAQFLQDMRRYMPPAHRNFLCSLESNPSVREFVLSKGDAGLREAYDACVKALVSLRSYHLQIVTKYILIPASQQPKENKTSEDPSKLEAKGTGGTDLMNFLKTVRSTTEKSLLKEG
Assay: Enzymatic IDO assay (kynurenine production, absorbance 480 nm)
Details: hIDO IC50, Table 15; recombinant human IDO, enzymatic activity
measured.quantity: IC50

[[record]]
compound = "COC(=O)CCC(ON)c1ccccc1 (stereo not drawn) [compound 1880, methyl 4-(aminooxy)-4-phenylbutanoate]"
value_measured = "< 10 µM"

[[record]]
compound = "NOCc1ccc(F)cc1Cl [compound 1676, O-(2-chloro-4-fluorobenzyl)hydroxylamine]"
value_measured = "< 10 µM"

[[record]]
compound = "NOCc1cc(F)cc(F)c1 [compound 1770, O-(3,5-difluorobenzyl)hydroxylamine]"
value_measured = "< 10 µM"

[[record]]
compound = "COC(=O)c1ccc(-c2ccc(Cl)cc2CON)cc1"
value_measured = "< 10 µM"

[[record]]
compound = "NOCc1c(F)cccc1Cl [compound 1674, O-(2-chloro-6-fluorobenzyl)hydroxylamine]"
value_measured = "10 to 100 µM"

[[record]]
compound = "NOCc1c[nH]c2ccccc12 [compound 1742, O-((1H-indol-3-yl)methyl)hydroxylamine]"
value_measured = "10 to 100 µM"

[[record]]
compound = "NOCc1cc(Cl)ccc1-c1cncnc1"
value_measured = "< 10 µM"

[[record]]
compound = "NOCc1cc(Cl)ccc1-c1ccc(Cl)c(Cl)c1"
value_measured = "< 10 µM"

[[record]]
compound = "NOC1CCCc2ccccc21 (stereo not drawn)"
value_measured = "< 10 µM"

[[record]]
compound = "NOC(COCc1ccccc1)c1ccccc1 (stereo not drawn)"
value_measured = "< 10 µM"

[[record]]
compound = "NOC(c1ccccc1)C1CCCCC1 (stereo not drawn)"
value_measured = "< 10 µM"

[[record]]
compound = "COc1ccc(OC)c(CON)c1 [compound 1771, O-(2,5-dimethoxybenzyl)hydroxylamine]"
value_measured = "< 10 µM"

[[record]]
compound = "NOCc1ccccc1NCc1ccccc1"
value_measured = "< 10 µM"

[[record]]
compound = "NOCc1cc(Cl)ccc1-c1ccc(Cl)cc1"
value_measured = "< 10 µM"

[[record]]
compound = "CN(C)c1ccc(-c2ccc(Cl)cc2CON)cc1"
value_measured = "< 10 µM"

[[record]]
compound = "NOCc1ccc2ncccc2c1 [compound 1741, O-(quinolin-6-ylmethyl)hydroxylamine]"
value_measured = "10 to 100 µM"

[[record]]
compound = "CNC(=O)[C@@H](ON)c1ccccc1"
value_measured = "< 10 µM"

[[record]]
compound = "CC(C)(C)OC(=O)NCC(ON)c1ccccc1 (stereo not drawn)"
value_measured = "100 to 1000 µM"

[[record]]
compound = "NOCc1cc(Cl)ccc1-c1cccs1"
value_measured = "< 10 µM"

[[record]]
compound = "NOCc1ccc2c(c1)OCO2"
value_measured = "< 10 µM"

[[record]]
compound = "NOC(CCC1CCCCC1)c1ccccc1 (stereo not drawn)"
value_measured = "< 10 µM"

[[record]]
compound = "NOCc1cc(Cl)ccc1-c1ccc2[nH]ccc2c1"
value_measured = "< 10 µM"

[[record]]
compound = "NOCc1cccc(NCc2ccccc2)c1 [compound 1872, 3-(aminooxymethyl)-N-benzylaniline]"
value_measured = "< 10 µM"

[[record]]
compound = "NOCc1csc2ccc(Cl)cc12"
value_measured = "< 10 µM"

[[record]]
compound = "NOCc1ccccc1-c1ccc(Cl)cc1"
value_measured = "< 10 µM"

[[record]]
compound = "NOCc1cc(Cl)ccc1-c1ccccc1"
value_measured = "< 10 µM"

[[record]]
compound = "NOC(CN1CCOCC1)c1ccccc1 (stereo not drawn)"
value_measured = "10 to 100 µM"

[[record]]
compound = "NOCc1ccc2c(c1)OCCO2"
value_measured = "10 to 100 µM"

[[record]]
compound = "NOCc1ccccc1Nc1ccccc1"
value_measured = "< 10 µM"

[[record]]
compound = "NOCc1nc2ccccc2s1"
value_measured = "< 10 µM"


The reported numbers originate from patent US20130289083A1.
